- target_system: Gag-Pol polyprotein (Human immunodeficiency virus type 1 group M subtype B (isolate HXB2)) (UniProt P04585)
- test_details: RNase H inhibition, HIV 1 Gag Pol polyprotein, FRET biochemical assay, screening (AID 372)
- experimental_parameters: HIV-1 RT RNase H, FRET RNA/DNA substrate fluorescence; at 10 µM; active compounds read high
Among all 100,000 compounds or so, about 770 (0.77%) were called active. Only a selection was taken, and actives are over-represented in it overall.

{"compound": "O=C(NC(=S)Nc1ccc2oc(-c3cc(Cl)ccc3Cl)nc2c1)c1cccc(F)c1", "display_unit": "%", "inhibition": 18}
{"compound": "CC(=O)Oc1ccc(-c2cccc(C(=O)OC(C)C)c2)cc1", "display_unit": "%", "inhibition": 9}
{"compound": "Clc1ccc(COc2cccc(/C=N/n3cnnc3)c2)c(Cl)c1", "display_unit": "%", "inhibition": 50}
{"compound": "O=C(Nc1ccc(F)cc1F)c1cccc(I)c1", "display_unit": "%", "inhibition": 4}
{"compound": "O=C(Cc1cccc2ccccc12)N/N=C/c1cc(Br)c(O)c(Br)c1O", "display_unit": "%", "inhibition": 0}
{"compound": "C=CCN1C(=O)/C(=C\\c2ccc(I)o2)C(=O)NC1=S", "display_unit": "%", "inhibition": 27}
{"compound": "O=C(COc1cccc(Cl)c1)N/N=C\\c1ccc(O)cc1", "display_unit": "%", "inhibition": 1}
{"compound": "O=C(CC1OC(=O)c2ccccc21)c1ccccc1 (stereo unspecified)", "display_unit": "%", "inhibition": 1}
{"compound": "Cc1cccc(/C=N/NC(=O)c2ccccc2)c1", "display_unit": "%", "inhibition": 0}
{"compound": "C=CCN1C(=O)/C(=C\\c2ccc(-c3ccc([N+](=O)[O-])cc3)o2)C(=O)NC1=S", "display_unit": "%", "inhibition": 10}
{"compound": "O=C(O)c1c[nH]c2ccc(Br)cc2c1=O", "display_unit": "%", "inhibition": 13}

The values you see were collected from PubChem BioAssay AID372.
